target: BRG-1 (Homo sapiens, UniProt P51532); construct: made in house; host or cells: High Five insect cells; assay: ATPase catalytic activity of BRG-1, ADP-Glo in vitro biochemical assay; conditions: ADP-Glo ATPase assay, 30 nM BRG-1, 400 μM ATP; read-out: BRG1 IC50
Sequence (P51532 whole entry): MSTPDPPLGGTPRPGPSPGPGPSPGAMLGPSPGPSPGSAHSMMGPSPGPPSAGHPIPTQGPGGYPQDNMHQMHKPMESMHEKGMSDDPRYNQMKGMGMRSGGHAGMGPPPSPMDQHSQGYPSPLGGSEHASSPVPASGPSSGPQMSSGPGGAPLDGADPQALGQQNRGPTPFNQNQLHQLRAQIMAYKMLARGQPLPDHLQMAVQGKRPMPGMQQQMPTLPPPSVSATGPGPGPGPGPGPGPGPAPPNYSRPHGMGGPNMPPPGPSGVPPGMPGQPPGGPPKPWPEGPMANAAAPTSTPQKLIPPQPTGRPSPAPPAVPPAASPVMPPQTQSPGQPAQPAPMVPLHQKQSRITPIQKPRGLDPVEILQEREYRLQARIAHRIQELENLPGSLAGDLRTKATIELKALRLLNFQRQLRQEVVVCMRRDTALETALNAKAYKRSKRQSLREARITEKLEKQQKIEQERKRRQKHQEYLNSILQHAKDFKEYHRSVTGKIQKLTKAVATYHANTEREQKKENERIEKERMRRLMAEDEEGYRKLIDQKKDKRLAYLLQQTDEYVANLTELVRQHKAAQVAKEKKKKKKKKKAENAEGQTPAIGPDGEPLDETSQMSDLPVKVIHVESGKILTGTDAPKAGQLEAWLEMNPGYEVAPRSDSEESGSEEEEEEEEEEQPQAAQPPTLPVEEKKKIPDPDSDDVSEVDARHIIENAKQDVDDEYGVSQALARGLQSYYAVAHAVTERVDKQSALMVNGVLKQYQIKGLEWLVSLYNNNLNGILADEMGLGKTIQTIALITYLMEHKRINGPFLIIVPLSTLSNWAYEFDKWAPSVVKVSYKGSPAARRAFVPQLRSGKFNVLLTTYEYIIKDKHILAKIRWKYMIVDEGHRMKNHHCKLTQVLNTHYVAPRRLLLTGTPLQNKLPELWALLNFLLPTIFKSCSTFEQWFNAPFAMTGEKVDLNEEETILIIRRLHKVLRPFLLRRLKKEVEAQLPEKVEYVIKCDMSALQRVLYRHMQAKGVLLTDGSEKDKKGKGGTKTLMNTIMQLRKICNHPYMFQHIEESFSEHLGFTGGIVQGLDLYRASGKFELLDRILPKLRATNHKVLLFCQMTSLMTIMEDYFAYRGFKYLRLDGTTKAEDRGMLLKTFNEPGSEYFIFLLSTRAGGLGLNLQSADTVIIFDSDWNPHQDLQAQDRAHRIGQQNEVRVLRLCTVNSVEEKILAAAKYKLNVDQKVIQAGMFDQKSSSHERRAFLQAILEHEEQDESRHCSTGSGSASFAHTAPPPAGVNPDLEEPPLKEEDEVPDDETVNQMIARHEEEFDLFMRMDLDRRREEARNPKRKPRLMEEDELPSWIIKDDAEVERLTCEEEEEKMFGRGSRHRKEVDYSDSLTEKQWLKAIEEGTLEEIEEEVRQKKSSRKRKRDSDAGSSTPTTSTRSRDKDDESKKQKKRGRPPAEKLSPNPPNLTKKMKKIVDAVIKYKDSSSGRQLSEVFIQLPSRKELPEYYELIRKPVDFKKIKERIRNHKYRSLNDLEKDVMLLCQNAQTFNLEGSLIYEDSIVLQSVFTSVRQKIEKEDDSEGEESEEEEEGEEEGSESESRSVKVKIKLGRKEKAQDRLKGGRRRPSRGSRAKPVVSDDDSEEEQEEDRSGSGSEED
List of IC50 values.
Hi! Could you send only the number? It should be in nM, unit omitted.

>  <structureNotation>
O=C(NCc1cc2nc(N3CCN(CC(F)F)c4cccnc43)ccc2cn1)c1ccc2c(c1)S(=O)(=O)CCOC2

>  <studyTarget>
BRG-1 (Homo sapiens, UniProt P51532)

>  <quantityUnit>
nM

>  <recordedMeasurement>
478

$$$$
>  <structureNotation>
CN(C)S(=O)(=O)c1cccc(C(=O)NCc2cc3nc(-c4cncc(C5CC5)n4)ccc3cn2)c1

>  <studyTarget>
BRG-1 (Homo sapiens, UniProt P51532)

>  <quantityUnit>
nM

>  <recordedMeasurement>
8880

$$$$
>  <structureNotation>
O=C(NCc1cc2nc(-c3cncc(C4CC4)n3)ccc2cn1)c1ccc2c(c1)S(=O)(=O)COCC2

>  <studyTarget>
BRG-1 (Homo sapiens, UniProt P51532)

>  <quantityUnit>
nM

>  <recordedMeasurement>
440

$$$$

Note: attention shifts to another entry.
Q. Entry "CN(C)c1cnc2c(c1)OCCN2c1ccc2cnc(CNC(=O)c3ccc4c(c3)S(=O)(=O)CCOC4)cc2c1" : reported IC50 = ?
A. 61.4

* * *

molecular target: BRM (Homo sapiens); construct: made in house; host or cells: High Five insect cells; assay: ATPase catalytic activity of BRM, ADP-Glo in vitro biochemical assay; settings: ATPase catalytic activity, ADP-Glo; 30 nM BRM, 400 μM ATP
Sequence (P51531 whole entry): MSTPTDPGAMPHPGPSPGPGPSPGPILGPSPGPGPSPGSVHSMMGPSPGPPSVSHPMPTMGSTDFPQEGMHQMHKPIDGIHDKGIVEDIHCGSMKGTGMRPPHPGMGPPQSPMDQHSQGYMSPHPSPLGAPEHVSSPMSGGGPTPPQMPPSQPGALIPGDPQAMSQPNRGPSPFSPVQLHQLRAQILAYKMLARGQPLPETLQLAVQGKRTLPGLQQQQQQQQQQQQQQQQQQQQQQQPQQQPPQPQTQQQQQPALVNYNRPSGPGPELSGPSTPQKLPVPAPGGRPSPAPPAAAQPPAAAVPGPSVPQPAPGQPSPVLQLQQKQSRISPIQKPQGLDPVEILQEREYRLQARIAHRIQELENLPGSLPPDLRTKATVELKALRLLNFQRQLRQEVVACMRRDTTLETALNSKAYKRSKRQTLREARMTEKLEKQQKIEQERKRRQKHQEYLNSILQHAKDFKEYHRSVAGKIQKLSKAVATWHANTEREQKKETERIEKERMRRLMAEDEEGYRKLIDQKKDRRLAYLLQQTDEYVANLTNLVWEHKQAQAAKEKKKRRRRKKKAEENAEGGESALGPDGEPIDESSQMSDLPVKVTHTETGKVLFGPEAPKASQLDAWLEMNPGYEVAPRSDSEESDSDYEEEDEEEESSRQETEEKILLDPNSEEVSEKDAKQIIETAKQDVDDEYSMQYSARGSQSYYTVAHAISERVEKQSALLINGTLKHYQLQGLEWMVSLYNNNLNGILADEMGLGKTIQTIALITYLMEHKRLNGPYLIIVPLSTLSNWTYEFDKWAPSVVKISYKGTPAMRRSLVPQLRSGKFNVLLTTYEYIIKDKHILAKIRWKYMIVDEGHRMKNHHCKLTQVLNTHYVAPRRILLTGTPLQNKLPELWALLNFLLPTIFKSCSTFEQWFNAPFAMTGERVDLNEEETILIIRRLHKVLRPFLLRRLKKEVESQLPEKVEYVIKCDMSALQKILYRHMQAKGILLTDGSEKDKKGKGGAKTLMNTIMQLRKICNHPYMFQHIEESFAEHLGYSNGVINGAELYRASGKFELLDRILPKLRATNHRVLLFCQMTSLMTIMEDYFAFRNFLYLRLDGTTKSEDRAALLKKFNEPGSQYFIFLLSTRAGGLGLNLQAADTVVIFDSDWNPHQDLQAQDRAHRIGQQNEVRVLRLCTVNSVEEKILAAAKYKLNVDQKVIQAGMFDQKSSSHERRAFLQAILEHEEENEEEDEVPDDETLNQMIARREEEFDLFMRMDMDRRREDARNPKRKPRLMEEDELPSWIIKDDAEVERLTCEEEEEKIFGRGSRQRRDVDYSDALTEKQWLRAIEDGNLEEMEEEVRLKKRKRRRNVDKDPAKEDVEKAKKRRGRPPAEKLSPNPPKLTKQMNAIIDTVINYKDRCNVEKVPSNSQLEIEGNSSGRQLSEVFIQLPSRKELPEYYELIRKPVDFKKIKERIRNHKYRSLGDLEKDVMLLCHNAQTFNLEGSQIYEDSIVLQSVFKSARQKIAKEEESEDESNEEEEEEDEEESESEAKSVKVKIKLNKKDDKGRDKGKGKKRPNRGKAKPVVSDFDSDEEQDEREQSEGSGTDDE
measuredQuantity: pIC50
Reminder that pIC50 is minus the log10 of a molar concentration.

Q. Consider the molecule "C[C@@H]1CN(c2cccc(-c3ccc4cnc(CNC(=O)c5cc(F)c6c(c5)S(=O)(=O)CCO[C@H]6C)cc4n3)n2)C[C@H](C)O1" and give its measured pIC50.
A. 7.86

Q. Follow-up entry: "C[C@@H]1CN(c2cccc(-c3ccc4cnc(CNC(=O)c5ccc6c(c5)S(=O)(=O)[C@@H](C)CO6)cc4n3)n2)C[C@H](C)O1"
A. 7.71

Q. Also "C[C@H]1CCc2ccc(-c3ccc4cnc(CNC(=O)c5ccc6c(c5)S(=O)(=O)CCOC6)cc4n3)nc2N1C" ?
A. 7.60

Q. Next record, please: "Cc1cc2c(nc1C1CC1)N(c1ccc3cnc(CNC(=O)c4ccc5c(c4)S(=O)(=O)CCOC5)cc3n1)CCC2"
A. 7.23

Q. Please do the same for "CC[C@H]1CCS(=O)(=O)c2cc(C(=O)NCc3cc4nc(-c5cccc(N6C[C@@H](C)O[C@@H](C)C6)n5)ccc4cn3)ccc2O1" as well.
A. 6.10

Q. Also "Cn1c(C(F)F)cc2c(-c3ccc4cnc(CNC(=O)c5ccc6c(c5)S(=O)(=O)CCOC6)cc4n3)ccnc21" , if possible.
A. 7.82

* * *

molecular target: BRM (Homo sapiens); construct: made in house; host or cells: High Five insect cells; test: ATPase catalytic activity of BRM, ADP-Glo in vitro biochemical assay; conditions: ATPase catalytic activity, ADP-Glo; 30 nM BRM, 400 μM ATP
measuredQuantity: log10(IC50) (log10 of the value in nM)
Lab note - IC50 converted to log10 from values in nM.

Example results:
>  <compound>
COCc1nc2c(cc1Cl)CCCN2c1ccc2cnc(CNC(=O)c3ccc4c(c3)S(=O)(=O)CCOC4)cc2n1

>  <measuredQuantity>
log10(IC50)

>  <recordedMeasurement>
1.77

$$$$
>  <compound>
O=C(NCc1cc2nc(N3CCCc4ccc(OCC5COC5)cc43)ccc2cn1)c1ccc2c(c1)S(=O)(=O)CCOC2

>  <measuredQuantity>
log10(IC50)

>  <recordedMeasurement>
0.48

$$$$
>  <compound>
Cc1ccc2c(n1)N(c1ccc3cnc(CNC(=O)c4ccc5c(c4)S(=O)(=O)CCOC5)cc3n1)CCC2

>  <measuredQuantity>
log10(IC50)

>  <recordedMeasurement>
1.26

$$$$
>  <compound>
CN1CCN(c2ccc3cnc(CNC(=O)c4ccc5c(c4)S(=O)(=O)CCOC5)cc3n2)c2ccccc21

>  <measuredQuantity>
log10(IC50)

>  <recordedMeasurement>
1.46

$$$$
>  <compound>
C[C@@H]1CN(c2cccc(-c3ccc4cnc(CNC(=O)c5ccc6c(c5)S(=O)(=O)CC[C@@H](C5CC5)O6)cc4n3)n2)C[C@H](C)O1

>  <measuredQuantity>
log10(IC50)

>  <recordedMeasurement>
2.52

$$$$
>  <compound>
O=C(NCc1cc2nc(N3CCCc4ccc(C5CCOC5)nc43)ccc2cn1)c1ccc2c(c1)S(=O)(=O)CCOC2 (centres unmarked)

>  <measuredQuantity>
log10(IC50)

>  <recordedMeasurement>
1.68

$$$$

Q. # get_value(readout='log10(IC50)', item= "CO[C@H](C)c1ccc2c(n1)N(c1ccc3cnc(CNC(=O)c4ccc5c(c4)S(=O)(=O)CCOC5)cc3n1)CCC2" )
A. 2.63

Q. And for "CCOc1nc(-c2ccc3cnc(CNC(=O)c4ccc5c(c4)S(=O)(=O)CCOC5)cc3n2)ccc1Cl" ?
A. 2.25

Q. Entry to check: "O=C(NCc1cc2nc(N3CCCc4c(OC5COC5)cccc43)ccc2cn1)c1ccc2c(c1)S(=O)(=O)CCOC2"
A. 0.66

Q. Also, "CCOc1ccnc2c1CCCN2c1ccc2cnc(CNC(=O)c3ccc4c(c3)S(=O)(=O)CCOC4)cc2n1" please.
A. 0.90

Q. Next entry: "C[C@@H]1CCS(=O)(=O)c2cc(C(=O)NCc3cc4nc(-c5cccc(N6C[C@@H](C)O[C@@H](C)C6)n5)ccc4cn3)ccc2O1"
A. 1.99

Q. Now the compound COC1CCS(=O)(=O)c2cc(C(=O)NCc3cc4nc(-c5cccc(N6C[C@@H](C)O[C@@H](C)C6)n5)ccc4cn3)ccc2C1 (some centres unmarked)
A. 0.88
